Target: T1, recombinant human lymphotoxin-α homotrimer (human LTα3) (human, UniProt P01374 35-205)
T1 construct: Coated on plates in the ELISAs; also called rhLTα; lymphotoxin-α3 trimer
T1 sequence (looked up): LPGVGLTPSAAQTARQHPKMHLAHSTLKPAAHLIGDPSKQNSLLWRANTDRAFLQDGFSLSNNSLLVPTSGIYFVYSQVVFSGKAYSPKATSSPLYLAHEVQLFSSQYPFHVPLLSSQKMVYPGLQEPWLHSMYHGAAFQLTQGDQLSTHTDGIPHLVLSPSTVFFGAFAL
Assay: plate-based ELISA against LTα
Each record here notes measured relative binding (EC50 of the variant / EC50 of version 5).
assay.metric: relative binding (EC50 of the variant / EC50 of version 5) (ratio)

binder	units.of.measure	numeric.readout
3F12 version 14 of Table 2 (3F12.v5 with T33A, CDR-L1) (antibody, IgG1, V domains shown, Alanine-scan variant of 3F12.v5; human kappa / IgG1; also called 3F12 clone 14) VH: EVQLVESGGGLVQPGGSLRLSCAASGYTFSSYWIEWVRQAPGKGLEWVGEISPGSGSTNYNEEFKGRATFSADNSKNTAYLQMNSLRAEDTAVYYCADGYHGYWGQGTLVTVSS VL: DIQMTQSPSSLSASVGDRVTITCKSSQSLLYSANQKNFLAWYQQKPGKAPKLLIYWASTRDSGVPSRFSGSGSGTDFTLTISSLQPEDFATYYCQQYYSYPRTFGQGTKVEIK	ratio	0.72
3F12 version 21 (3F12.v5 with S93A, CDR-L3) (antibody, IgG1, V domains shown, Alanine-scan variant of 3F12.v5; human kappa / IgG1; also called 3F12 clone 21) VH: EVQLVESGGGLVQPGGSLRLSCAASGYTFSSYWIEWVRQAPGKGLEWVGEISPGSGSTNYNEEFKGRATFSADNSKNTAYLQMNSLRAEDTAVYYCADGYHGYWGQGTLVTVSS VL: DIQMTQSPSSLSASVGDRVTITCKSSQSLLYSTNQKNFLAWYQQKPGKAPKLLIYWASTRDSGVPSRFSGSGSGTDFTLTISSLQPEDFATYYCQQYYAYPRTFGQGTKVEIK	ratio	0.82
